The reported measurements were obtained from paper PMC10786919.

- Test system: HCT116 cells
- PROTOCOL DETAILS: Lactate dehydrogenase (LDH) release assay
- Assay type: cell-based
- Description: HCT116 cells were stably transfected with a p53 responsive β-lactamase reporter and expanded in McCoy’s 5 A Medium with 10% fetal bovine serum (FBS), Blasticidin, and Penicillin/Streptomycin and then transferred to 1.5 ml freezing vials and stored under liquid nitrogen in growth media containing 5% DMSO. […] Lactate dehydrogenase release was detected using the CytoTox-ONE Homogenous Membrane Integrity Assay Kit (Promega), as per the manufacturer’s instructions. […]
Positions of bridges follow the written chain, without caps; N, C: chain ends. Non-standard residues stand in square brackets, D forms with d. Residues, ends and D or L forms follow the SMILES beside them. Lys(N3) = [N-]=[N+]=NCCCC[C@H](N)C(=O)O; R8 = C=CCCCCCC[C@@](C)(N)C(=O)O; Cba = N[C@@H](CC1CCC1)C(=O)O; S5 = C=CCCC[C@](C)(N)C(=O)O; βAla = NCCC(=O)O
Documented EC50 across a set of compounds
RECORDED METRIC: EC50 (µM)

COMPOUND | TESTED ON | RESULT NUMBER
CC(=O)N[C@@H](CCCCN)C(=O)NCCCCCC(=O)N[C@H](C(=O)N[C@@H](CO)C(=O)N[C@@H](Cc1ccccc1)C(=O)N[C@]1(C)CCCCCCC=CCCC[C@@](C)(C(=O)N[C@@H](CCC(=O)O)C(=O)N[C@@H](CC(N)=O)C(=O)N[C@@H](Cc2ccccc2)C(N)=O)NC(=O)[C@H](CC(C)C)NC(=O)[C@H](CC(C)C)NC(=O)[C@H](C)NC(=O)[C@H](Cc2c[nH]c3ccccc23)NC(=O)[C@H](Cc2ccc(O)cc2)NC(=O)[C@H](CCC(=O)O)NC1=O)[C@@H](C)O | HCT116 cells | 50.5
CC(=O)N[C@H](C(=O)N[C@@H](CO)C(=O)N[C@@H](Cc1ccccc1)C(=O)N[C@]1(C)CCCCCCC=CCCC[C@@](C)(C(N)=O)NC(=O)[C@H](CC(C)C)NC(=O)[C@H](CC(C)C)NC(=O)[C@H](C)NC(=O)[C@H](Cc2c[nH]c3ccccc23)NC(=O)[C@H](Cc2ccc(O)cc2)NC(=O)[C@H](CCC(=O)O)NC1=O)[C@@H](C)O | HCT116 cells | 50.5
CC(C)C[C@H](NC(=O)CCNC(=O)[C@@H](N)CCCCN=[N+]=[N-])C(=O)N[C@H](C(=O)N[C@@H](Cc1ccccc1)C(=O)N[C@]1(C)CCCCCCC=CCCC[C@@](C)(C(N)=O)NC(=O)[C@H](CC2CCC2)NC(=O)[C@H](CC(C)C)NC(=O)[C@H](CCC(N)=O)NC(=O)[C@H](Cc2c[nH]c3ccccc23)NC(=O)[C@H](Cc2ccc(O)cc2)NC(=O)[C@H](CCC(=O)O)NC1=O)[C@@H](C)O [MP-329] (H-[Lys(N3)][βAla]LTF[R8]EYWQL[Cba][S5]-NH2; staple 6-13) | HCT116 cells | 50.5

----------
- Test system: Jump-In T-REx CHO-K1 BLA cells
- PROTOCOL DETAILS: cells
- Assay type: cell-based
- COND: 0% FBS 4Hr; read-out: TETCHO: Counterscreen EC50
Documented EC50 across a set of molecules

MOLECULE | TESTED ON | EC50
CC(C)C[C@@H]1NC(=O)[C@H](C)NC(=O)[C@H](Cc2c[nH]c3ccccc23)NC(=O)[C@H](Cc2ccc(O)cc2)NC(=O)[C@H](CCC(=O)O)NC(=O)[C@](C)(NC(=O)[C@H](Cc2ccccc2)NC(=O)[C@H](CO)NC(=O)[C@@H](NC(=O)[C@H](CO)NC(=O)CNC(=O)[C@@H](N)CO)[C@@H](C)O)CCCCCCC=CCCC[C@@](C)(C(N)=O)NC(=O)[C@H](CC(C)C)NC1=O | Jump-In T-REx CHO-K1 BLA cells | > 50 µM
CC(=O)N[C@@H](CC(C)C)C(=O)N[C@H](C(=O)N[C@@H](Cc1ccccc1)C(=O)N[C@]1(C)CCCCCCC=CCCC[C@@](C)(C(=O)N[C@@H](CO)C(=O)N[C@@H](C)C(=O)N[C@@H](C)C(N)=O)NC(=O)[C@@H](CC2CCC2)NC(=O)[C@H](CC(C)C)NC(=O)[C@H](CCC(N)=O)NC(=O)[C@H](Cc2c[nH]c3ccccc23)NC(=O)[C@H](Cc2ccc(O)cc2)NC(=O)[C@H](CCC(=O)O)NC1=O)[C@@H](C)O | Jump-In T-REx CHO-K1 BLA cells | > 50.6 µM
CC(=O)N[C@H](C(=O)N[C@@H](CO)C(=O)N[C@@H](Cc1ccccc1)C(=O)N[C@]1(C)CCCCCCC=CCCC[C@@](C)(C(=O)N[C@@H](CCC(=O)O)C(N)=O)NC(=O)[C@H](CC(C)C)NC(=O)[C@H](CC(C)C)NC(=O)[C@H](C)NC(=O)[C@H](Cc2c[nH]c3ccccc23)NC(=O)[C@H](Cc2ccc(O)cc2)NC(=O)[C@H](CCC(=O)O)NC1=O)[C@@H](C)O | Jump-In T-REx CHO-K1 BLA cells | > 50 µM
CC(=O)N[C@@H](Cc1c[nH]cn1)C(=O)N[C@@H](Cc1c[nH]cn1)C(=O)N[C@@H](Cc1c[nH]cn1)C(=O)NCCCCCC(=O)N[C@H](C(=O)N[C@@H](CO)C(=O)N[C@@H](Cc1ccccc1)C(=O)N[C@]1(C)CCCCCCC=CCCC[C@@](C)(C(N)=O)NC(=O)[C@H](CC(C)C)NC(=O)[C@H](CC(C)C)NC(=O)[C@H](C)NC(=O)[C@H](Cc2c[nH]c3ccccc23)NC(=O)[C@H](Cc2ccc(O)cc2)NC(=O)[C@H](CCC(=O)O)NC1=O)[C@@H](C)O | Jump-In T-REx CHO-K1 BLA cells | > 50 µM
CC(=O)N[C@H](C(=O)N[C@@H](CO)C(=O)NC(C)(Cc1ccccc1)C(=O)N[C@@H]1CCCCCCC=CCCC[C@@H](C(N)=O)NC(=O)C(C)(CC(C)C)NC(=O)[C@H](CC(C)C)NC(=O)[C@H](C)NC(=O)[C@H](Cc2c[nH]c3ccccc23)NC(=O)[C@H](Cc2ccc(O)cc2)NC(=O)[C@H](CCC(=O)O)NC1=O)[C@@H](C)O (some centres unmarked) | Jump-In T-REx CHO-K1 BLA cells | 48.9 µM
